- Method Summary: Oral bioavailability in Sprague-Dawley rat at 30 mg/kg as submicron emulsion measured after 24 hrs by LC-MS/MS analysis
- Assay type: ADME, organism-based
- Condition Parameters: in vivo
Endpoint Name: bioavailability (%)

• CC(C)Oc1cc(F)ccc1-c1ccnc(NC(=O)Nc2cccc(C(=O)N3CCN(C)CC3)c2)c1 = 26.4

* * *

- Method Summary: Tmax in Sprague-Dawley rat at 30 mg/kg, po measured after 24 hrs by LC-MS/MS analysis
- Type: ADME, organism-based
- Condition Parameters: in vivo
Endpoint Name: Tmax (min)

* CC(C)Oc1cc(F)ccc1-c1ccnc(NC(=O)Nc2cccc(C(=O)N3CCN(C)CC3)c2)c1 | 15

* * *

- Method Summary: AUC (0 to t) in Sprague-Dawley rat at 2 mg/kg, iv measured after 24 hrs by LC-MS/MS analysis
- Assay type: ADME, organism-based
- Condition Parameters: in vivo
Endpoint Name: AUC(0-t) at 24 h (ng·h/mL)

• CC(C)Oc1cc(F)ccc1-c1ccnc(NC(=O)Nc2cccc(C(=O)N3CCN(C)CC3)c2)c1 = 403

* * *

- Method Summary: Oral bioavailability in Sprague-Dawley rat at 30 mg/kg measured after 24 hrs by LC-MS/MS analysis
- Type: ADME, organism-based
- Condition Parameters: in vivo
Endpoint Name: bioavailability (%)

- CC(C)Oc1cc(F)ccc1-c1ccnc(NC(=O)Nc2cccc(C(=O)N3CCN(C)CC3)c2)c1: 14.7

* * *

- Method Summary: AUC (0 to infinity) in Sprague-Dawley rat at 2 mg/kg, iv measured after 24 hrs by LC-MS/MS analysis
- Format: ADME, organism-based
- Condition Parameters: in vivo
Endpoint Name: AUC(0-inf) (ng·h/mL)

* CC(C)Oc1cc(F)ccc1-c1ccnc(NC(=O)Nc2cccc(C(=O)N3CCN(C)CC3)c2)c1 | 407

* * *

- Method Summary: Clearance in Sprague-Dawley rat at 2 mg/kg, iv measured after 24 hrs by LC-MS/MS analysis
- Format: ADME, organism-based
- Condition Parameters: in vivo
Endpoint Name: clearance (mL/min/kg)

* CC(C)Oc1cc(F)ccc1-c1ccnc(NC(=O)Nc2cccc(C(=O)N3CCN(C)CC3)c2)c1 | 81.8

* * *

- Assay Target: CYP3A4 (Homo sapiens, UniProt P08684)
- Sequence (P08684 whole entry): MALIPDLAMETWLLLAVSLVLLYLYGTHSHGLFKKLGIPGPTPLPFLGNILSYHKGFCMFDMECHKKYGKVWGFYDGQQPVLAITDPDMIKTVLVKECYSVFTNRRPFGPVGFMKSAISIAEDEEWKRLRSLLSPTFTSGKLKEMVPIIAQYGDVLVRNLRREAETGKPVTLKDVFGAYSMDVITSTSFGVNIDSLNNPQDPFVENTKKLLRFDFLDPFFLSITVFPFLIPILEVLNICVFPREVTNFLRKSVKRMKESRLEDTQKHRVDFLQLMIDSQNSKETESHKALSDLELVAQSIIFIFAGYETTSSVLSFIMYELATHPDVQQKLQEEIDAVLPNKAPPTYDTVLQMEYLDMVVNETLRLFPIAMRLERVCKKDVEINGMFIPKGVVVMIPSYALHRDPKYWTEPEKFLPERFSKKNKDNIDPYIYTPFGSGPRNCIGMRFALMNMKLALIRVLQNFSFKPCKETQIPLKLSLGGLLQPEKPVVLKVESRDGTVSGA
- Method Summary: Inhibition of CYP3A4 in human liver microsome at 10 uM pre-incubated with compound for 10 mins in presence of NADPH-regenerating system by LC-MS/MS analysis relative to control
- Assay type: ADME
- Condition Parameters: liver microsomes
Endpoint Name: inhibition at 10 µM (%)

- CC(C)Oc1cc(F)ccc1-c1ccnc(NC(=O)Nc2cccc(C(=O)N3CCN(C)CC3)c2)c1: 5.2

* * *

- Assay Target: UniProtKB P05177
- Sequence (P05177 whole entry): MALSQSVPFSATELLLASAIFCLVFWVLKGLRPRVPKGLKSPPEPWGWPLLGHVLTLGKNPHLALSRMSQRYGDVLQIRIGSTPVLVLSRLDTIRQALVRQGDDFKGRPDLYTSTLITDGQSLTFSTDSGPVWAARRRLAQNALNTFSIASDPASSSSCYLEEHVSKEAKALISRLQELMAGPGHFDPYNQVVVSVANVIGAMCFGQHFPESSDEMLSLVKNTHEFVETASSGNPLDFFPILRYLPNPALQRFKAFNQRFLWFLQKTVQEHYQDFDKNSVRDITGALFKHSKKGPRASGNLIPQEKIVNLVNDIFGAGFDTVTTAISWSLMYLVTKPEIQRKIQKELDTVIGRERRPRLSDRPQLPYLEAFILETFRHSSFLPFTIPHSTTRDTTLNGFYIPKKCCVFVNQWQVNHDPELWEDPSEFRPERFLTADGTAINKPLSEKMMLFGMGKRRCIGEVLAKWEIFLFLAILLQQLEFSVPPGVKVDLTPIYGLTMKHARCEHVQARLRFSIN
- Method Summary: Inhibition of CYP1A2 in human liver microsome at 10 uM pre-incubated with compound for 10 mins in presence of NADPH-regenerating system by LC-MS/MS analysis relative to control
- Assay type: ADME
- Condition Parameters: liver microsomes
The entries below are paired with their reported inhibition at 10 µM.
Endpoint Name: inhibition at 10 µM (%)

• O=c1cc(-c2ccccc2)oc2c1ccc1ccccc12 = 88.4
• CC(C)Oc1cc(F)ccc1-c1ccnc(NC(=O)Nc2cccc(C(=O)N3CCN(C)CC3)c2)c1 = 12.5

* * *

- Method Summary: Stability in human plasma assessed as half life at 100 uM measured up to 120 mins by LC-MS/MS analysis
- Type: ADME, cell-free
Endpoint Name: half-life at 100 µM (min)

* CC(C)[N+](C)(CCOC(=O)C1c2ccccc2Oc2ccccc21)C(C)C.[Br-] [PROPANTHELINE BROMIDE] | 15.6

* * *

- Method Summary: MRT (infinity) in Sprague-Dawley rat at 2 mg/kg, iv measured after 24 hrs by LC-MS/MS analysis
- Format: ADME, organism-based
- Condition Parameters: in vivo
Endpoint Name: MRT inf

• CC(C)Oc1cc(F)ccc1-c1ccnc(NC(=O)Nc2cccc(C(=O)N3CCN(C)CC3)c2)c1 = 20.1 min

* * *

- Method Summary: Plasma protein binding in human at 100 uM measured up to 120 mins by LC-MS/MS analysis relative to control
- Type: ADME, cell-free
- Condition Parameters: read-out: PPB (converted)
Endpoint Name: fraction unbound at 2 h, 100 µM

* CC(C)Oc1cc(F)ccc1-c1ccnc(NC(=O)Nc2cccc(C(=O)N3CCN(C)CC3)c2)c1 | 0.006

* * *

- Method Summary: Half life in Sprague-Dawley rat at 30 mg/kg, po measured after 24 hrs by LC-MS/MS analysis
- Type: ADME, organism-based
- Condition Parameters: in vivo
Endpoint Name: half-life (min)

• CC(C)Oc1cc(F)ccc1-c1ccnc(NC(=O)Nc2cccc(C(=O)N3CCN(C)CC3)c2)c1 = 47

* * *

- Method Summary: Tmax in Sprague-Dawley rat at 30 mg/kg, po as submicron emulsion measured after 24 hrs by LC-MS/MS analysis
- Format: ADME, organism-based
- Condition Parameters: in vivo
Endpoint Name: Tmax

* CC(C)Oc1cc(F)ccc1-c1ccnc(NC(=O)Nc2cccc(C(=O)N3CCN(C)CC3)c2)c1 | 30 min

* * *

- Assay Target: CDK9/cyclin T1 (Homo sapiens)
- Sequence (O60563 whole entry): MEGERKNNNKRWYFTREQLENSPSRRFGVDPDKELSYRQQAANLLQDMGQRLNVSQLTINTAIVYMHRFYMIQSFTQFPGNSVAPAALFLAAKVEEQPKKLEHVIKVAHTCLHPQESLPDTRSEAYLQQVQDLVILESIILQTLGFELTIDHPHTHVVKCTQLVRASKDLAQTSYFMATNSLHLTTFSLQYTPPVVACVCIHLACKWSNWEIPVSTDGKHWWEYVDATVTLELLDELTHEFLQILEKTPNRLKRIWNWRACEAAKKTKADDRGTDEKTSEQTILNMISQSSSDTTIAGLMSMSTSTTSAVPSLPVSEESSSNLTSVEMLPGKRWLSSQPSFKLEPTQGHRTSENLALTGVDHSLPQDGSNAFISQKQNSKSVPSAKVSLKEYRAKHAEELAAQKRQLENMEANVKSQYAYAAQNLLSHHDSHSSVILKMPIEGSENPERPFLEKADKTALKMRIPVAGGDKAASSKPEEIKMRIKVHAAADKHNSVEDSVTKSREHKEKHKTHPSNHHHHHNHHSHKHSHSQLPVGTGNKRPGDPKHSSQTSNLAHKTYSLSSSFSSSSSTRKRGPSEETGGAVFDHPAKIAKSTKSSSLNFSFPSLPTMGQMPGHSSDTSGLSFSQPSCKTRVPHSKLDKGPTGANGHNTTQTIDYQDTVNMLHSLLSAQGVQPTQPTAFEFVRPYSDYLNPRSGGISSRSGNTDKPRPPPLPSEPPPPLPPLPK
- Sequence (P50750 whole entry): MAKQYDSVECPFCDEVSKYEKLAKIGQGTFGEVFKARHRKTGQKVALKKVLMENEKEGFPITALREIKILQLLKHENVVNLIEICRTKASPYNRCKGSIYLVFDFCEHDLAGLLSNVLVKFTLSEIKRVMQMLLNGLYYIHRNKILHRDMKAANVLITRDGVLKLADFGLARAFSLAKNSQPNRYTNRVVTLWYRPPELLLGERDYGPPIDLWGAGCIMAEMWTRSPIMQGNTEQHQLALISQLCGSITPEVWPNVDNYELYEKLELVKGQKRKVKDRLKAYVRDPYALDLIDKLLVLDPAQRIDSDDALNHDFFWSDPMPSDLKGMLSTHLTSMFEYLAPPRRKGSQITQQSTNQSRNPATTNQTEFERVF
- Method Summary: Inhibition of His-tagged full length human recombinant CDK9/cyclinT1 using KTFCGTPEYLAPEVRREPRILSEEEQEMFRDFDYIADWC as substrate incubated for 60 mins by ADP-Glo kinase assay
pIC50: −log10 of the molar value.
Readings of pIC50 for the listed compounds
Endpoint Name: pIC50

- COc1ccc(-c2ccnc(NC(=O)Nc3cccc(C(=O)N4CCOCC4)c3)c2)cc1: < 7.30
- CC(C)Oc1cc(F)ccc1-c1ccnc(NC(=O)Nc2ccc(C(=O)N3CCCC3)cc2)c1: < 7.30
- O=C(Nc1cccc(C(=O)N2CCOCC2)c1)Nc1cc(-c2ccc(F)cc2OCC2CCCC2)ccn1: 7.23
- CCN1CCN(C(=O)c2ccc(NC(=O)Nc3cc(-c4ccc(F)cc4OC(C)C)ccn3)cc2)CC1: < 7.30
- O=C(Nc1cccc(C(=O)N2CCOCC2)c1)Nc1cc(-c2cc(F)c(F)c(F)c2)ccn1: < 7.30
- O=C(Nc1cccc(C(=O)N2CCOCC2)c1)Nc1cc(-c2cc(F)cc(F)c2)ccn1: < 7.30
- O=C(Nc1cccc(C(=O)N2CCOCC2)c1)Nc1cc(-c2ccc(Cl)cc2F)ccn1: < 7.30
- CC(=O)N1CCN(C(=O)c2ccc(NC(=O)Nc3cc(-c4ccc(F)cc4OC(C)C)ccn3)cc2)CC1: < 7.30
- CC(=O)N1CCN(C(=O)c2cccc(NC(=O)Nc3cc(-c4ccc(F)cc4OC(C)C)ccn3)c2)CC1: < 7.30
- O=C(Nc1cccc(C(=O)N2CCOCC2)c1)Nc1cc(-c2ccc(F)c(F)c2)ccn1: < 7.30
- CC(C)Oc1cc(F)ccc1-c1ccnc(NC(=O)Nc2cccc(C(=O)N3CCOCC3)c2)c1: 7.68
- CC(C)Oc1cc(F)ccc1-c1ccnc(NC(=O)Nc2ccc(C(=O)N3CCOCC3)cc2)c1: < 7.30
- CC(C)Oc1cc(F)ccc1-c1ccnc(NC(=O)Nc2ccc(C(=O)N3CCC(F)(F)CC3)cc2)c1: < 7.30
- CC(C)Oc1cc(F)ccc1-c1ccnc(NC(=O)Nc2cccc(C(=O)N3CCN(C)CC3)c2)c1: 8.19
- COc1ccccc1-c1ccnc(NC(=O)Nc2cccc(C(=O)N3CCOCC3)c2)c1: 7.34
- O=C(Nc1cccc(C(=O)N2CCOCC2)c1)Nc1cc(-c2ccc(F)cc2)ccn1: < 7.30
- CCN1CCN(C(=O)c2cccc(NC(=O)Nc3cc(-c4ccc(F)cc4OC(C)C)ccn3)c2)CC1: 7.78
- CC(C)Oc1cc(F)ccc1-c1ccnc(NC(=O)Nc2ccc(C(=O)N3CCN(C)CC3)cc2)c1: < 7.30
- CC(C)Oc1cc(F)ccc1-c1ccnc(NC(=O)Nc2cccc(C(=O)N3CCCC3)c2)c1: 7.45
- O=C(Nc1cccc(C(=O)N2CCOCC2)c1)Nc1cc(-c2ccc(F)cc2F)ccn1: < 7.30
- CC(C)Oc1cc(F)ccc1-c1ccnc(NC(=O)Nc2cccc(C(=O)N3CCN(C(C)C)CC3)c2)c1: < 7.30
- O=C(Nc1cccc(C(=O)N2CCOCC2)c1)Nc1cc(-c2ccccc2F)ccn1: < 7.30
- Cc1ccc(-c2ccnc(NC(=O)Nc3cccc(C(=O)N4CCOCC4)c3)c2)cc1: < 7.30
- CCOc1cc(F)ccc1-c1ccnc(NC(=O)Nc2cccc(C(=O)N3CCOCC3)c2)c1: 7.52
- O=C(Nc1cccc(C(=O)N2CCOCC2)c1)Nc1cc(-c2ccc(F)cc2OCC2CCCCC2)ccn1: 7.05
- CC(C)Oc1cc(F)ccc1-c1ccnc(NC(=O)Nc2cccc(C(=O)N3CCCN(C)CC3)c2)c1: < 7.30
- COc1cc(F)ccc1-c1ccnc(NC(=O)Nc2cccc(C(=O)N3CCOCC3)c2)c1: 7.56
- CC(C)Oc1cc(F)ccc1-c1ccnc(NC(=O)Nc2ccc(C(=O)N3CCN(C(C)C)CC3)cc2)c1: < 7.30
- O=C(Nc1cccc(C(=O)N2CCOCC2)c1)Nc1cc(-c2cccc(F)c2)ccn1: < 7.30
- O=C(Nc1cccc(C(=O)N2CCOCC2)c1)Nc1cc(-c2cccc(Cl)c2)ccn1: 7.45
